For each record, write down the corresponding log(1/C).
Biological target: Human immunodeficiency virus type 1 reverse transcriptase (Human immunodeficiency virus 1) (UniProt Q72547)
Experiment: Inhibition of HIV1 wild type reverse transcriptase
The answer should be written as a number, with no unit following it.

Could you tell me which log(1/C) is on file for "Cc1cc(C#N)cc(C)c1Oc1ccnc(Nc2ccc(C#N)cc2)n1" ?
8.96

Item "Cc1cc(C#N)cc(C)c1Oc1nc(Nc2ccc(C#N)cc2)ncc1N" has what recorded log(1/C)?
9

Consider the compound shown here: "Cc1cccc(C)c1Nc1ccnc(Nc2ccc(C#N)cc2)n1" What is its recorded log(1/C)?
9.15

Which log(1/C) is listed for "Cc1cc(Br)cc(C)c1Oc1ccnc(Nc2ccc(C#N)cc2)n1" ?
8.54

Please give the measured log(1/C) for this compound: "N#Cc1ccc(Nc2nccc(Nc3c(Br)cc(F)cc3Br)n2)cc1"
9.22

Sample "Cc1cc(C#N)cc(C)c1Nc1nc(Nc2ccc(C#N)cc2)nc(CO)c1Br" — what was its log(1/C)?
8.4

So what does the record say about log(1/C) for "Cc1cc(Cl)cc(Cl)c1Nc1ccnc(Nc2ccc(C#N)cc2)n1" ?
9

So what's the measured log(1/C) for this one? "Cc1cc(C#N)cc(C)c1Nc1nc(Nc2ccc(C#N)cc2)nc(NO)c1Br"
8.4

Given Cc1cc(C)c(Nc2ccnc(Nc3ccc(C#N)cc3)n2)c(C)c1 [DAPIVIRINE] , state its recorded log(1/C).
9

What value of log(1/C) has been recorded for this entry: "C#Cc1cc(C)c(Oc2ccnc(Nc3ccc(C#N)cc3)n2)c(C)c1"
8.26

// returns reported log(1/C) for input "Cc1cnc(Nc2ccc(C#N)cc2)nc1Nc1c(C)cc(C#N)cc1C"
9.1

Consider the compound "Cc1cc(C#N)cc(C)c1Oc1nc(Nc2ccc(C#N)cc2)ncc1Cl" and give its measured log(1/C).
8.85

Give its log(1/C) value. Item: "Cc1cc(C#N)cc(C)c1Sc1ccnc(Nc2ccc(C#N)cc2)n1"
8.24

Quick check: log(1/C) of "Cc1cc(C)c(Nc2nc(Nc3ccc(C#N)cc3)ncc2C#N)c(C)c1" ?
9

Which value of log(1/C) has been reported for "Cc1cc(C)c(Nc2nc(Nc3ccc(C#N)cc3)ncc2Cl)c(C)c1" in the records?
8.57

For the compound Cc1cc(C#N)cc(C)c1Oc1nc(Nc2ccc(C#N)cc2)nc(N)c1Br [ETRAVIRINE] , what log(1/C) is on record?
8.85

State the recorded log(1/C) for this entry: "Cc1cc(Br)cc(C)c1Nc1ccnc(Nc2ccc(C#N)cc2)n1"
8.64

Can you look up the measured log(1/C) of "Cc1cc(C#N)cc(C)c1Nc1nc(Nc2ccc(C#N)cc2)ncc1Br" for me?
9.4

Recorded log(1/C) of "Cc1cc(C)c(Nc2nc(Nc3ccc(C#N)cc3)ncc2C)c(C)c1" , please.
8.77

====

Test system: Human immunodeficiency virus type 1 reverse transcriptase (Human immunodeficiency virus 1), Q72547 [[…]]
Experiment: Inhibition of HIV1 reverse transcriptase Y188L mutant
reported_metric: log(1/C)
Answer with the value's number alone.

Fill in the blank: the reported log(1/C) of "Cc1cc(C#N)cc(C)c1Nc1ccnc(Nc2ccc(C#N)cc2)n1" is ____.
8.11

Consider the compound shown here: "Cc1cc(C#N)cc(C)c1Nc1nc(Nc2ccc(C#N)cc2)nc(CO)c1Br" What is its recorded log(1/C)?
8.22

Entry under review: "Cc1cc(C#N)cc(C)c1Nc1nc(Nc2ccc(C#N)cc2)ncc1C#N" . Reported log(1/C)?
8.07

# input compound: Cc1cc(C#N)cc(C)c1Oc1nc(Nc2ccc(C#N)cc2)nc(N)c1Br [ETRAVIRINE] ; wanted: its log(1/C)
8.34

Reported log(1/C) for "Cc1cccc(C)c1Nc1ccnc(Nc2ccc(C#N)cc2)n1" : what is it?
6.59

What value of log(1/C) has been recorded for this entry: "N#Cc1ccc(Nc2nccc(Nc3c(Br)cc(F)cc3Br)n2)cc1"
7.19

====

Assay: Hydrophobic index, Log P of the compound
Format: physicochemical
Conditions: octanol/water; read-out: logP
reported_metric: logP
Give the figure by itself; no unit, no explanation.

Quick check: logP of "C=Cc1cnc(Nc2ccc(C#N)cc2)nc1Nc1c(C)cc(C)cc1C" ?
2.1

I'd like to know its logP. The molecule in question is "N#Cc1ccc(Nc2nccc(Nc3c(Cl)cc(Cl)cc3Cl)n2)cc1"
0.51

Look up logP for this molecule: Cc1cc(C)c(Nc2ccnc(Nc3ccc(C#N)cc3)n2)c(C)c1 [DAPIVIRINE]
1.64

Name the recorded logP for "Cc1cc(Cl)cc(C)c1Nc1ccnc(Nc2ccc(C#N)cc2)n1" .
1.27

Entry "C#Cc1cnc(Nc2ccc(C#N)cc2)nc1Nc1c(C)cc(C)cc1C" : reported logP = ?
1.63

Returns the measured logP for the input molecule. Input: "Cc1cc(C)c(Sc2ccnc(Nc3ccc(C#N)cc3)n2)c(C)c1"
2.16

Entry "N#Cc1ccc(Nc2nccc(Nc3c(Br)cc(F)cc3Br)n2)cc1" has what logP?
0.68

Find the recorded logP belonging to "Cc1cc(C)c(Nc2nc(Nc3ccc(C#N)cc3)ncc2Cl)c(C)c1" and report it.
1.72

====

System: Human immunodeficiency virus type 1 reverse transcriptase (Human immunodeficiency virus 1), Q72547 [L100I]
Test: Inhibition of HIV1 reverse transcriptase L100I mutant
reported_metric: log(1/C)
Simply state the number, no unit and no words.

What log(1/C) value was documented for this compound, "Cc1cc(Cl)cc(Cl)c1Nc1ccnc(Nc2ccc(C#N)cc2)n1" ?
7.22

Query (compound): "Cc1cc(C#N)cc(C)c1Oc1ccnc(Nc2ccc(C#N)cc2)n1" ; field requested: log(1/C)
7.14

Param item = "Cc1cc(C#N)cc(C)c1Nc1nc(Nc2ccc(C#N)cc2)nc(CO)c1Br" ; retrieve measured log(1/C).
8.7

Endpoint output: log(1/C) of "N#Cc1ccc(Nc2nccc(Nc3c(Br)cc(F)cc3Br)n2)cc1" . Value?
7.82

For "Cc1cc(C#N)cc(C)c1Nc1nc(Nc2ccc(C#N)cc2)ncc1C#N" , what is its reported log(1/C)?
7.04

Given the compound "Cc1cc(C)c(Oc2ccnc(Nc3ccc(C#N)cc3)n2)c(C)c1" , what is its reported log(1/C)?
7.66

Query (compound): "Cc1cc(C#N)cc(C)c1Oc1nc(Nc2ccc(C#N)cc2)ncc1N" ; field requested: log(1/C)
7.8

Reported log(1/C) for "Cc1cc(C#N)cc(C)c1Nc1nc(Nc2ccc(C#N)cc2)ncc1Cl" : what is it?
8.28

Name the reported log(1/C) value associated with the compound Cc1cc(C)c(Nc2ccnc(Nc3ccc(C#N)cc3)n2)c(C)c1 [DAPIVIRINE]
7.74

Need log(1/C), item "N#Cc1ccc(Nc2nccc(Nc3c(Cl)cc(Cl)cc3Cl)n2)cc1"
7.85

Which log(1/C) reading was recorded for the compound "Cc1cc(Cl)cc(C)c1Nc1ccnc(Nc2ccc(C#N)cc2)n1" ?
6.49

What value of log(1/C) has been reported for the following compound? "Cc1cc(C#N)cc(C)c1Nc1nc(Nc2ccc(C#N)cc2)ncc1Br"
8.15

# input compound: "Cc1cc(Br)cc(C)c1Oc1ccnc(Nc2ccc(C#N)cc2)n1" ; wanted: its log(1/C)
6.95

Look at this compound and give its reported log(1/C). "Cc1cc(C#N)cc(C)c1Oc1nc(Nc2ccc(C#N)cc2)ncc1[N+](=O)[O-]"
6.92

What value of measured log(1/C) is listed for "Cc1cc(C)c(Sc2ccnc(Nc3ccc(C#N)cc3)n2)c(C)c1" ?
7.27

Look up log(1/C): "C=Cc1cnc(Nc2ccc(C#N)cc2)nc1Nc1c(C)cc(C)cc1C"
7.46

Tell me the measured log(1/C) of Cc1cc(C#N)cc(C)c1Oc1nc(Nc2ccc(C#N)cc2)nc(N)c1Br [ETRAVIRINE] , please.
8.48

====

System: Human immunodeficiency virus type 1 reverse transcriptase (Human immunodeficiency virus 1), Q72547 [Y181C]
Test: Inhibition of HIV1 reverse transcriptase Y181C mutant
Kindly supply the reported log(1/C) values for the records listed here.
Number, no unit, nothing else.

Return reported log(1/C); argument: "Cc1cc(C#N)cc(C)c1Oc1nc(Nc2ccc(C#N)cc2)ncc1N"
8.03

// lookup log(1/C) for Cc1cc(C)c(Nc2ccnc(Nc3ccc(C#N)cc3)n2)c(C)c1 [DAPIVIRINE]
8.12

Data request, read-out log(1/C), for "Cc1cc(Br)cc(C)c1Oc1ccnc(Nc2ccc(C#N)cc2)n1"
7.23

Query: log(1/C); subject: "Cc1cc(C#N)cc(C)c1Nc1nc(Nc2ccc(C#N)cc2)ncc1Cl"
7.85

Endpoint output: log(1/C) of "Cc1cc(C)c(Nc2nc(Nc3ccc(C#N)cc3)ncc2C#N)c(C)c1" . Value?
7.4

log(1/C) for "Cc1cc(C#N)cc(C)c1Nc1nc(Nc2ccc(C#N)cc2)ncc1Br" ?
8.02

# query: log(1/C) of entry "N#Cc1ccc(Nc2nccc(Nc3c(Cl)cc(Cl)cc3Cl)n2)cc1"
8

Sample "Cc1cc(C#N)cc(C)c1Nc1nc(Nc2ccc(C#N)cc2)ncc1C#N" — what was its log(1/C)?
7.12

Please give the measured log(1/C) for this molecule: "Cc1cc(Cl)cc(C)c1Nc1ccnc(Nc2ccc(C#N)cc2)n1"
7.72

Any idea what its log(1/C) is? The molecule is "Cc1cc(C#N)cc(C)c1Nc1nc(Nc2ccc(C#N)cc2)nc(NO)c1Br"
7.92

State the recorded log(1/C) for this entry: "Cc1cc(C#N)cc(C)c1Oc1ccnc(Nc2ccc(C#N)cc2)n1"
7.43

Record request: log(1/C) value, item "Cc1cc(C)c(Sc2ccnc(Nc3ccc(C#N)cc3)n2)c(C)c1"
7.6

Any idea what log(1/C) was measured for Cc1cc(C#N)cc(C)c1Oc1nc(Nc2ccc(C#N)cc2)nc(N)c1Br [ETRAVIRINE] ?
8.15

Would you mind telling me what log(1/C) value was observed for "Cc1cc(C#N)cc(C)c1Oc1nc(Nc2ccc(C#N)cc2)ncc1[N+](=O)[O-]" ?
6.52

Request the reported log(1/C) associated with "Cc1cnc(Nc2ccc(C#N)cc2)nc1Nc1c(C)cc(C#N)cc1C"
7.92

Please give the measured log(1/C) for this molecule: "C#Cc1cc(C)c(Oc2ccnc(Nc3ccc(C#N)cc3)n2)c(C)c1"
6.77

Returns the measured log(1/C) for the input molecule. Input: "Cc1cc(C)c(Oc2ccnc(Nc3ccc(C#N)cc3)n2)c(C)c1"
7.42

What does the data say about its log(1/C)? Entry: "Cc1cccc(C)c1Nc1ccnc(Nc2ccc(C#N)cc2)n1"
7.21

Which value of log(1/C) has been reported for "Cc1cc(Br)cc(C)c1Nc1ccnc(Nc2ccc(C#N)cc2)n1" in the records?
7.77
